Target: biotinylated human ApoC3 (human) (UniProt P02656)
Experiment: SPR, biotinylated human ApoC3 on streptavidin chip, scFv-Fc injected, pH 5.5
Parameter: kon. Scope: all listed entries.
All answers are understood in M⁻¹ s⁻¹, so give the number only.

Take a look at these entries with their results.
[[record]]
binder = "5E5VH12_VLWT scFv-Fc antibody (scFv, part only; not given: Linker, domain order, Fc, V domains shown, not shown: another chain or arm of the molecule; a dimerising Fc or GST; small tags and cut ends) VH: QLQLVESGGGLVQPGGSLRLSCAASGFTFGTYSMRWVRQVPRKALEWVSSISTDGGGTAYRDSVKGRFTISRDNAKNTLYLQMNNLKPEDTAIYYCVIHGYSDWGQGTQVTVSS VL: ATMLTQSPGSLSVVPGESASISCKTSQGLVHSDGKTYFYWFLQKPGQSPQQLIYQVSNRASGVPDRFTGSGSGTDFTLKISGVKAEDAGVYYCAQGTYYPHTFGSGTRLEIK"
quantity_name = "kon"
data_value = 129000

[[record]]
binder = "5E5WT scFv-Fc antibody (scFv, part only; not given: Linker, domain order, Fc, V domains shown, not shown: another chain or arm of the molecule; a dimerising Fc or GST; small tags and cut ends) VH: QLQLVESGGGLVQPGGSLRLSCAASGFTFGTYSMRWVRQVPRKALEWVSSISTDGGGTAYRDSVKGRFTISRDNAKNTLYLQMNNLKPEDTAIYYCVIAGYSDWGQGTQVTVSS VL: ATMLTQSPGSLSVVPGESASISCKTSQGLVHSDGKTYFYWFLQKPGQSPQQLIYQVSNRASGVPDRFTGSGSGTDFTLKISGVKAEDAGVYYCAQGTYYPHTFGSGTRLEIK"
quantity_name = "kon"
data_value = 393000

[[record]]
binder = "5E5VH5_VLWT scFv-Fc antibody (scFv, part only; not given: Linker, domain order, Fc, V domains shown, not shown: another chain or arm of the molecule; a dimerising Fc or GST; small tags and cut ends) VH: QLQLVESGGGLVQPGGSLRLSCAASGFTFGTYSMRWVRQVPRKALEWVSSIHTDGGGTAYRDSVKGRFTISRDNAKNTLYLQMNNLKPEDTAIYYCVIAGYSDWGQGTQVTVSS VL: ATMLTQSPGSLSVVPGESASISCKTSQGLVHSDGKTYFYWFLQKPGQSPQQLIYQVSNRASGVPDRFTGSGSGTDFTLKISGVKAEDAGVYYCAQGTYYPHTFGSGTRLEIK"
quantity_name = "kon"
data_value = 147000


Please turn your attention to the following entry.
Fill blank: measured kon of the binder 5E5VHWT_VL8 scFv-Fc antibody (scFv, part only; not given: Linker, domain order, Fc, V domains shown, not shown: another chain or arm of the molecule; a dimerising Fc or GST; small tags and cut ends) VH: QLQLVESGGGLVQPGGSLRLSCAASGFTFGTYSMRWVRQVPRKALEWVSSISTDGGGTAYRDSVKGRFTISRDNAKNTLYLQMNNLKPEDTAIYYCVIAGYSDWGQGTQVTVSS VL: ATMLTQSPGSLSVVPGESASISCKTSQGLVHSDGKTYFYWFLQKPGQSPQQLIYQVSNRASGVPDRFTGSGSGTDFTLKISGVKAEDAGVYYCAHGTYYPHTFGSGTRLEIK is ____. 269000
